// provenance: the supplement of paper PMC12669032

- System: Bacteroides dorei
- protocol: growth AUC relative to DMSO control (median of replicates) (fraction); higher = more growth (less inhibition), active = hit call of the paper
- cond: 20 µM; 24 h
Answer Criterion not met if growth AUC is under 1, and Criterion met if it is 1 or more.

Check out these entries, answers already filled in.
INSERT INTO assay_data (inputsmiles, testtarget, classname) VALUES
  ('CC(C)N(Cc1ccccc1)C(=O)C(C)(C)C', 'Bacteroides dorei', 'Criterion not met'),
  ('CCNc1nc(Cl)nc(NC(C)(C)C#N)n1', 'Bacteroides dorei', 'Criterion met');

Q. API: above_or_equal(metric=growth AUC, cutoff=1) for item O=S(=O)(Oc1ccc(Cl)cc1)c1ccc(Cl)cc1
A. Criterion not met

###

- Tested on: Bacteroides uniformis
- protocol: growth AUC relative to DMSO control (median of replicates) (fraction); higher = more growth (less inhibition), active = hit call of the paper
- cond: 20 µM; 24 h
endpointLabel: growth AUC
Give bare numbers.

Answered cases to consult:
INSERT INTO assay_data (compound, observedmeasurement) VALUES
  ('O=[N+]([O-])/N=C1\NCCN1Cc1ccc(Cl)nc1', 1),
  ('COc1cc(C)c(C(=O)c2c(OC)ccc(Br)c2C)c(OC)c1OC', 0.91),
  ('COC(=O)COc1ccc(Cl)cc1Cl', 1.04);

Provide growth AUC values for the following items, in order.
1. CCOC(=O)C(SP(=S)(OC)OC)c1ccccc1 (stereo unspecified)
2. CCOc1cc(C(C)(C)C)ccc1C1COC(c2c(F)cccc2F)=N1 (stereo unspecified)
3. COCC(C)N(C(=O)CCl)c1c(C)csc1C (stereo unspecified)

A.
1: 0.929; 2: 0.958; 3: 0.93

###

- System: Roseburia intestinalis
- protocol: growth AUC relative to DMSO control (median of replicates) (fraction); higher = more growth (less inhibition), active = hit call of the paper
- cond: 20 µM; 24 h
Please respond with reported growth AUC for every item in the list.
Give bare numbers.

Answered cases to consult:
INSERT INTO measurements (molecule, observedmeasurement) VALUES
  ('COP(=S)(OC)SCN1C(=O)c2ccccc2C1=O', 0.901),
  ('CNC(=O)O/N=C(\SC)C(=O)N(C)C', 0.997),
  ('ClCC1C(CCl)C2(Cl)C(Cl)=C(Cl)C1(Cl)C2(Cl)Cl (stereo not given)', 0.996),
  ('O=[N+]([O-])C(Br)(CO)CO', 0.964),
  ('Clc1cc(Cl)c(Cl)cc1Cl', 0.962);

Provide growth AUC values for the following items, in order.
1. CC(C)(O)C(Cl)(Cl)Cl.CC(C)(O)C(Cl)(Cl)Cl.O
2. COC(=O)/C(C)=C/OP(=S)(OC)OC
3. Cc1cc(Cl)ccc1OCC(=O)O.O.[Na]
4. BrCCBr
5. C=CCC1=C(C)C(OC(=O)[C@@H]2[C@@H](C=C(C)C)C2(C)C)CC1=O (stereo not given in full)
6. O=C(NC(=O)c1c(F)cccc1F)Nc1ccc(CO/N=C(\c2ccc(Cl)cc2)C2CC2)cc1
7. N#CN=C1SCCN1Cc1ccc(Cl)nc1
8. COc1cc(OC)nc(NC(=O)NS(=O)(=O)c2ncccc2C(F)(F)F)n1

A.
[1.01, 0.981, 1.02, 1.06, 1.05, 0.968, 1.01, 1]

Provide growth AUC values for the following items, in order.
1. Cc1cc(Cl)ccc1OCC(=O)O
2. CC[C@H]1CCCC(O[C@H]2CC[C@H](N(C)C)[C@@H](C)O2)[C@@H](C)C(=O)C2=C[C@@H]3[C@@H](C=C(C)[C@@H]4C[C@@H](O[C@@H]5O[C@@H](C)[C@H](OC)[C@@H](OC)[C@H]5OC)C[C@@H]34)[C@@H]2CC(=O)O1.CC[C@H]1CCCC(O[C@H]2CC[C@H](N(C)C)[C@@H](C)O2)[C@@H](C)C(=O)C2=C[C@@H]3[C@@H](C=C[C@@H]4C[C@@H](O[C@@H]5O[C@@H](C)[C@H](OC)[C@@H](OC)[C@H]5OC)C[C@@H]34)[C@@H]2CC(=O)O1 (stereo not given in full)

A.
[1.02, 1.03]
